System: Cannabinoid receptor 1 (Homo sapiens, UniProt P21554)
Sequence (P21554 whole entry): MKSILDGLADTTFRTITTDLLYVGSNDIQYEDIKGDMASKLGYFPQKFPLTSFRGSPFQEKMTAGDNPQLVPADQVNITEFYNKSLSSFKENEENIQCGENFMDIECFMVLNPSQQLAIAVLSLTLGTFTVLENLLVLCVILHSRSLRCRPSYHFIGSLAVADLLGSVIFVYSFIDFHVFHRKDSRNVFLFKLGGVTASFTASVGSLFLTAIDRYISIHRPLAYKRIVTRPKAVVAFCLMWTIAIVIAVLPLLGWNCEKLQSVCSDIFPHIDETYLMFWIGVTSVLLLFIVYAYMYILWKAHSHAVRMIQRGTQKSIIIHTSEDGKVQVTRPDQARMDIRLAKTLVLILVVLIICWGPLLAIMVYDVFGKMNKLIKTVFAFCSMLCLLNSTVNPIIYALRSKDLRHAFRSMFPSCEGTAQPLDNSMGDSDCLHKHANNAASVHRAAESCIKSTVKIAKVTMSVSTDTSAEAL
Assay protocol: Inverse agonist activity at human recombinant CB1R expressed in CHO cells assessed as increase in forskolin-stimulated cAMP level
Type: functional, cell-based
Value kind: EC50 (nM)
Give a bare numeral; the unit nM is implied.

- CC1CN(C(=O)C2CCCCC2)CCN1S(=O)(=O)c1cccc2ccccc12 (centres undefined): 180

// query EC50 value for entry CC1CN(S(=O)(=O)c2cccc3ccccc23)CCN1C(=O)C1CCCCC1 (centres undefined)
7

* * *

Reported pIC50 values follow for various molecules
System: Cannabinoid receptor 1 (Homo sapiens, UniProt P21554)
Assay protocol: Displacement of [3H]CP-55940 from human recombinant CB1R expressed in CHO cells
Assay type: cell-based
pIC50 here is simply -log10 of the concentration when that concentration is written in mol/L.

Example results:
* CCOC(=O)Oc1cc(C(F)(F)F)cc(S(=O)(=O)N2CCN(C(=O)[C@@H]3C[C@H]3c3ccc(C(F)(F)F)cc3)CC2)c1 | 8.10
* O=C1CSC(c2cc(C(F)(F)F)cc(S(=O)(=O)N3CCN(C(=O)[C@@H]4C[C@H]4c4ccc(C(F)(F)F)cc4)CC3)c2)=N1 | 8.00
* CC(C)(C)C(=O)Oc1cc(C(F)(F)F)cc(S(=O)(=O)N2CCN(C(=O)[C@@H]3C[C@H]3c3ccc(C(F)(F)F)cc3)CC2)c1 | 8.10

Fill in the blank: the reported pIC50 of Cc1nnc(-c2cc(C(F)(F)F)cc(S(=O)(=O)N3CCN(C(=O)[C@@H]4C[C@H]4c4ccc(C(F)(F)F)cc4)CC3)c2)[nH]1 is ____.
8.00

Request: O=C(Cc1ccc(C(F)(F)F)cc1)N1CCN(S(=O)(=O)c2cc(Cl)cc(Cl)c2)CC1
7.80

Then what about the molecule CC(C)(O)c1cc(C(F)(F)F)cc(S(=O)(=O)N2CCN(C(=O)[C@@H]3C[C@H]3c3ccc(C(F)(F)F)cc3)CC2)c1 ?
8.10

Next: O=C([C@@H]1C[C@H]1c1ccc(C(F)(F)F)cc1)N1CCN(S(=O)(=O)c2cc(-c3cn[nH]c3)cc(C(F)(F)F)c2)CC1
8.05
